test system: P388 leukemia ip, CD2F1 mice, survival T/C; test: NCI In Vivo Anticancer Drug Screen. Data for tumor model P388 Leukemia (intraperitoneal) in CD2F1 (CDF1) mice; conditions: endpoint: median survival time; dose: 400.0 mg/kg/injection; schedule: Q01DX001 (ip); vehicle: saline with Tween-80; higher = longer survival
Inconclusive results and toxic doses are left out.
T/C: recorded values

- molecule: "Cc1cc(=O)n(-c2cc(C)c3cc(Cl)ccc3n2)[nH]1"
  test system: "P388 leukemia ip, CD2F1 mice, survival T/C"
  experimental endpoint: "T/C"
  observed measurement: "104 % of control"
- molecule: "C=CCSc1nc(-c2ccc(Cl)cc2)c(C#N)c(=O)[nH]1"
  test system: "P388 leukemia ip, CD2F1 mice, survival T/C"
  experimental endpoint: "T/C"
  observed measurement: "92 % of control"
- molecule: "CN1C(=S)C2(C1c1ccccc1)C(C)(C)CCCC2(C)C (stereo unspecified)"
  test system: "P388 leukemia ip, CD2F1 mice, survival T/C"
  experimental endpoint: "T/C"
  observed measurement: "87 % of control"
- molecule: "O=C(NCCNC(=O)C12CC3CC(CC(C3)C1)C2)C12CC3CC(CC(C3)C1)C2"
  test system: "P388 leukemia ip, CD2F1 mice, survival T/C"
  experimental endpoint: "T/C"
  observed measurement: "86 % of control"
- molecule: "CCCn1c(Cl)c(/C=N\\Nc2ccc([N+](=O)[O-])cc2)c2ccccc21"
  test system: "P388 leukemia ip, CD2F1 mice, survival T/C"
  experimental endpoint: "T/C"
  observed measurement: "95 % of control"

// switching to the query molecule
# input Note down T/C recorded for Cn1c(=O)ccc2c3ncccc3c(C(F)(F)F)cc21
# output 101 % of control
